Data provenance is patent US6723747B2.

Listing: melting point of selected compounds

Use the examples below as a reference point.
compound	melting point
CCCCc1cc2c(c3ccc(O)cc13)OCc1cc(O)ccc1-2	118 to 121 °C
Oc1ccc2c3c(cc(Br)c2c1)-c1cc(F)c(O)cc1CO3	194 to 197 °C
Oc1ccc2c(c1)COc1c-2cc(Cl)c2cc(O)ccc12	212 to 216 °C (dec.)
Oc1ccc2c(c1)COc1c-2ccc2c(Cl)c(O)ccc12	216 to 218 °C
Oc1ccc2c(c1)COc1c-2ccc2ccccc12 [Example 1c, 6H-Dibenzo[c,h]chromen-8-ol]	192 to 194 °C
Oc1ccc2c(c1)COc1c-2ccc2c(O)c(Cl)ccc12	181 to 182 °C (dec.)

Below: the item to evaluate.
What melting point value was documented for this compound, N#Cc1cc2c(c3ccc(O)cc13)OCc1cc(O)ccc1-2 ?
> 250 °C

----------
Listing: melting point of selected compounds

compound	recorded_metric	result
Oc1ccc2c(c1)COc1c-2ccc2cc(O)ccc12 [Example 1a, 6H-Dibenzo[c,h]chromene-2,8-diol]	melting point	248 to 252 °C (dec.)

What melting point value was documented for this compound, Oc1ccc2c3c(cc(Cl)c2c1)-c1cc(F)c(O)cc1CO3 ?
215 to 220 °C (dec.)

What melting point value was documented for this compound, N#Cc1cc2c(c3ccc(O)cc13)OCc1cc(O)c(F)cc1-2 ?
> 250 °C

What melting point value was documented for this compound, Oc1ccc2c(c1)COc1c-2cc(-c2cccs2)c2cc(O)ccc12 ?
191 to 193 °C

What melting point value was documented for this compound, CCCc1cc2c(c3ccc(O)cc13)OCc1cc(O)ccc1-2 ?
86 to 95 °C

----------
Target: human ERβ (Homo sapiens)
Construct: M214-Q530 of human ERβ; Flag (C)
Assay: Radioligand binding competition with [3H]-17β-estradiol, ERβ
Settings: human ERβ ligand binding domain, read-out: ER-β IC50
recorded_metric: IC50 (nM)

Use the examples below as a reference point.
compound	units_label	IC50
Oc1ccc2c(c1)COc1c-2cc(-c2cccs2)c2cc(O)ccc12	nM	48.3
Oc1ccc2c(c1)COc1c-2cc(Cl)c2cc(O)ccc12	nM	1.1
Oc1ccc2c3c(cc(Br)c2c1)-c1cc(F)c(O)cc1CO3	nM	2

A = Cc1cc2c(c3ccc(O)cc13)OCc1cc(O)ccc1-2
B = Oc1ccc2c(c1)COc1c-2ccc2c(O)ccc(Cl)c12
Rank A against B by their IC50 values and give the higher one. Kindly state the label of the option you pick.
A

----------
Biological target: human ERβ (Homo sapiens, UniProt Q92731)
Construct: M214-Q530 of human ERβ; Flag (C)
Sequence (Q92731 214-530): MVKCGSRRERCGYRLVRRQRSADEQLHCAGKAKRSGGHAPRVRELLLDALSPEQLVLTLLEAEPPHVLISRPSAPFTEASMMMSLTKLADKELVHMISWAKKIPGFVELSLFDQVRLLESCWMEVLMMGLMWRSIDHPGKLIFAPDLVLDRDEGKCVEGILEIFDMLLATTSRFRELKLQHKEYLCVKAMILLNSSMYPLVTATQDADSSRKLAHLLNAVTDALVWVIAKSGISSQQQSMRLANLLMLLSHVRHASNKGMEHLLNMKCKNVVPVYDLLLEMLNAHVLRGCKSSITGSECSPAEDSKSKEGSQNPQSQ
Assay: Radioligand binding competition with [3H]-17β-estradiol, ERβ
Conditions: human ERβ ligand binding domain, read-out: ER-β IC50
recorded_metric: IC50 (nM)

Use the examples below as a reference point.
molecule	IC50 [nM]
Oc1ccc2c(c1)COc1c-2ccc2c(O)cccc12 [Example 1u, 6H-dibenzo[c,h]chromene-1,8-diol]	1.4
N#Cc1cc2c(c3ccc(O)cc13)OCc1cc(O)c(F)cc1-2	19
Oc1ccc2c(c1)COc1c-2cc(-c2ccsc2)c2cc(O)ccc12	29.2
Oc1ccc2c(c1)COc1c-2cc(Br)c2c(O)cccc12	1.4

a = CCCCc1cc2c(c3ccc(O)cc13)OCc1cc(O)ccc1-2
b = Oc1ccc2c(c1)COc1c-2cc(Br)c2cc(O)ccc12
c = Oc1ccc2c(c1)COc1c-2ccc2c(O)c(Cl)ccc12
d = COc1c(Cl)c2c(c3ccc(O)cc13)OCc1cc(O)ccc1-2
e = Oc1ccc2c(c1)COc1c-2ccc2ccccc12 [Example 1c, 6H-Dibenzo[c,h]chromen-8-ol]
Ordering criterion: IC50; begin with the maximum. Please reply with the labels ordered as requested. Many thanks.
e, a, c, b, d
(e: 79.7 nM, a: 3 nM, c: 1.65 nM, b: 0.9 nM, d: 0.27 nM)

a = CCc1cc2c(c3ccc(O)cc13)OCc1cc(O)ccc1-2
b = N#Cc1cc2c(c3cccc(O)c13)OCc1cc(O)ccc1-2
Identify the entry with the smaller IC50: a or b . Kindly state the label of the option you pick.
b
(b: 1.5 nM, a: 2.9 nM)

a = Oc1ccc2c3c(ccc2c1)-c1cc(F)c(O)cc1CO3
b = Oc1ccc2c(c1)COc1c-2ccc2c(Cl)c(O)ccc12
Rank a against b by their IC50 values and give the higher one. Kindly state the label of the option you pick.
b
(b: 2.7 nM, a: 1.8 nM)

I = Oc1ccc2c(c1)COc1c-2ccc2cc(O)ccc12 [Example 1a, 6H-Dibenzo[c,h]chromene-2,8-diol]
II = Oc1ccc2c(c1)COc1c-2cc(Cl)c2c(O)cccc12
Rank I against II by their IC50 values and give the higher one. Kindly state the label of the option you pick.
I
(I: 3.3 nM, II: 0.9 nM)

----------
Biological target: human ERβ (Homo sapiens, UniProt Q92731)
Construct: M214-Q530 of human ERβ; Flag (C)
Assay: Radioligand binding competition with [3H]-17β-estradiol, ERβ
Settings: human ERβ ligand binding domain, read-out: ER-β IC50
pIC50: −log10 of the molar value.
recorded_metric: pIC50

compound	pIC50
N#Cc1cc2c(c3ccc(O)cc13)OCc1cc(O)ccc1-2	8.74
CCCc1cc2c(c3ccc(O)cc13)OCc1cc(O)ccc1-2	7.96
C=Cc1cc2c(c3ccc(O)cc13)OCc1cc(O)ccc1-2	8.64

A = COc1cc2c(c3ccc(O)cc13)OCc1cc(O)ccc1-2
B = Oc1ccc2c3c(cc(Cl)c2c1)-c1cc(F)c(O)cc1CO3
C = N#Cc1cc2c(c3ccc(O)c(Cl)c13)OCc1cc(O)ccc1-2
Ordering criterion: pIC50; begin with the maximum. Please reply with the labels ordered as requested. Many thanks.
B, C, A
(B: 8.70, C: 8.46, A: 7.80)
